// provenance: the nanobody polyreactivity screen of Harvey et al. (2022)

Experiment: yeast display, Sf9 membrane polyspecificity reagent, FACS + sequencing; frameworks hold sequencing errors
parameter: polyreactivity (PSR sort gate)

inputSequence	result
QVQLVESGGGLVQAGGSLRLSCAASGRIFRYNAMGWYRQAPGKERELVAAITRSGGRTYYADSVKGRFTISRDNAKYTVYLQMNSLKPEDTAVYYCAADKYPSSPYVGDVDYWGQGTQVTVSS	high polyreactivity
QVQLVESGGGLVQAGGSLRLSCAASGSIFYKYTMGWYRQAPGKERELVAAISRSGGSTYYADSVKGRFTISRDNAKNTVYLQMNSLKPEDTAVYYCATTRRVPGEYWGQGTQVTVSS	high polyreactivity

###

Experiment: yeast display, Sf9 membrane polyspecificity reagent, FACS + sequencing; frameworks hold sequencing errors
parameter: polyreactivity (PSR sort gate)

inputSequence	parameter	result
QVQLVESGGGLVQAGRSLRLSCAASGSIFTYYAMGWYRQAPGKERELVAAINWSDSSTYNADSVKGRFTISRDNAKNTVYLQMNSLKPEDTAVYDCAATNYADGDYWGQGTQVTVSS	polyreactivity (PSR sort gate)	low polyreactivity
QVQLVESGGGLVQAGGSLRLSCAASGSIFSLNAMGWYRQAPGKERELVAVINRSGTRTYYADSVKGRFTISRDNAKNTVYLQINSLKPEVTAVYYCNAEPSSGSDAQNEYWGQGTQVTVSS	polyreactivity (PSR sort gate)	high polyreactivity
QVQLVESGGGLVQAGGSLRLSCAASGRILWYYTMGWYRQAPGKERELVAAISSGGRTHYADSVKGRFTISRDNAKNTVYLQMNSLKPVDTAVYYCAAKYGWGRFNYDYWGQGTQVTVSS	polyreactivity (PSR sort gate)	high polyreactivity
QDQLVESGGGLVQAGGSLRLSCAASGFIFARYVMGWYRPAPGKERELVASITGSGVSTYYADSVKGRFTISRDNAKNTVYLQMNSLKPEDTAVYYCATRVYRRYYLNSWYNYWGQGTQVTVSS	polyreactivity (PSR sort gate)	high polyreactivity
QVQLVESGGGLVQAGGSLRLSCAASGSTFVRNAMGWYRQAPGKERELVAGISTGDKTYYADSVKGRFTISRDNAKNTVYLQMNSLKPEDTAVYYCAASVGTYQTATLDYDSWGQGTQVTVSS	polyreactivity (PSR sort gate)	low polyreactivity

Problem: Which value of polyreactivity (PSR sort gate) has been reported for QVQLVESGGGLVQAGGSLRLTSAGSGSTFSYYTMGWYRQAPGKERELVATIRSTGSTTYADSVKGRFTISRDNVKNTVYLQMNSLKPEDTAVYFCAARSRWGGYIHTGYDYWGQGTQVTVSS in the records?
Result: low polyreactivity

Problem: Please look up its polyreactivity (PSR sort gate): QVQLVESGGGLVQARGSLRLSCAASGFNFRSYAMASYRQAPGKERELVAAINSRAGNTYYADSVKGRFTISRDNSKNTVYLQMNSLKPEDTAVYYCNAVRHTYGYYSCGQGTQVTVSS
Result: high polyreactivity

Problem: Item under review: QVQLVESGGGLVQAGGSLRLSCAASGSTLRTYAMGWYRQAPGKERELVAAISFSTTSTYYADSVKGRFTISRDNAKNTVYLQMNSLKPEDTAVYYCAAEYWYYWEYEYWGQGTQVTVSS . Reported polyreactivity (PSR sort gate)?
Result: high polyreactivity

Problem: Please give the measured polyreactivity (PSR sort gate) for this sequence: QVQLVESGGGLVQAGGSLRLSCAASGITFGRNTMGWYRQAPGKERELVAAIDSGGNTYADSVKGRFTISRDNAKNTVYLQMNSLKPEDTAVYYCAKDVYSYYYPYRYESWGQGTQVTVSS
Result: low polyreactivity

Problem: Reported polyreactivity (PSR sort gate), sequence QVQLVESGGGLVQAGGSLRLSCAASGNTFGIYAMGWYRQAPGKERELVAAISSGTSTNYADSVKGRFTISRDNAKNTVYLQMNSMKPEDTAVYYCNADDQYQDVREDYWGQGTQVTVSS : ____
Result: low polyreactivity

Problem: What polyreactivity (PSR sort gate) value was documented for this sequence, QVQLVESGGGLVQAGGSLRLSCAASGRIFRYYAMGWYRQAPGKERELVAAITRGGSTNYADSVKGRFTISRDNAKNTVYLQMNSLKPEDTAVYYCATRQSWYPRWMDYWGQGTQVTVSS ?
Result: high polyreactivity
